Target: PD-1/PD-L1 interaction (Homo sapiens, UniProt Q9NZQ7)
Sequence (Q9NZQ7 19-238 limits assumed): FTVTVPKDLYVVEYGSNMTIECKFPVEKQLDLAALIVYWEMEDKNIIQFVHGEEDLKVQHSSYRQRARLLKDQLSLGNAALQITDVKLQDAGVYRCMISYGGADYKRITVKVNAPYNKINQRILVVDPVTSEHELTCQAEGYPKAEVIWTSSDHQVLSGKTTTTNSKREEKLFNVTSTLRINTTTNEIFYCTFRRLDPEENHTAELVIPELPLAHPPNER
Assay: HTRF PD1/PD-L1 binding assay
Conditions: IC50 against the PD-1/PD-L1 interaction
Examples of molecules with documented IC50 follow.

N#Cc1cncc(COc2cc(OCc3cccc(-c4cc(F)ccc4F)c3F)ccc2CNCCO)c1 : < 1 µM

API: the following record is the query input.
Input line: State its IC50 on PD-1/PD-L1 interaction (Homo sapiens, UniProt Q9NZQ7): N#Cc1cccc(COc2cc(OCc3cccc(-c4cc(F)ccc4F)c3F)ccc2CNCCO)c1
Output line: < 1 µM

====

System: A549
Experiment: CCK-8 cell viability assay, A549
Assay type: cell-based
Settings: Homo sapiens, A549, 60 h, read-out: IC50 A549
quantity: IC50 (µM)
Lab book: enter the figure in µM, no units written.

Input line: State its IC50 on A549: COc1c(COc2ccc(CN[C@H](CO)C(=O)O)c(OCc3cncc(C#N)c3)c2)cccc1-c1ccccc1F [13h-1]
Output line: 7.27

Input line: State its IC50 on A549: COc1c(COc2cc(OCc3cccc(C#N)c3)c(CNCCO)cc2Cl)cccc1-c1ccccc1F [13h-3]
Output line: 13.5

Input line: State its IC50 on A549: Cc1c(COc2ccc(CNCCN)c(OCc3ccccc3)c2)cccc1-c1ccccc1F [12j-4]
Output line: 7.79
